Just for reference, patent US3937838A is where these values come from.

assay: Toxicity study in mice (Example 18); format: in vivo; conditions: mouse, in vivo, po; read-out: LD 50 + Standard error
READOUT TYPE: LD50 at 24 h
// unit must come after the numeric part

**Query** Note down LD50 at 24 h recorded for CC(C)(C)NCC(O)c1cc(OC(=O)C(C)(C)C)cc(OC(=O)C(C)(C)C)c1 (stereo not shown)
**Result** 2200 mg/kg

---

test: Acute toxicity in mice (Example 9); settings: mouse, in vivo, iv, mice
READOUT TYPE: LD50 (mg/kg)
Express it in mg/kg; write the number only.

**Query** Note down LD50 recorded for Oc1cc(O)cc(C(O)CNC2CCC2)c1 (stereo not shown) [KWD2025]
**Result** 54

---

experiment: Toxicity study in mice (Example 18); assay type: in vivo; conditions: mouse, in vivo, po, mice (NMRI, male), 24 hours; read-out: LD 50 + Standard error
READOUT TYPE: LD50 at 24 h

**Query** Note down LD50 at 24 h recorded for CC(C)(C)NCC(O)c1cc(O)cc(O)c1 (racemic)
**Result** 3200 mg/kg

**Query** Note down LD50 at 24 h recorded for CC(=O)Oc1cc(OC(C)=O)cc(C(O)CNC(C)(C)C)c1 (stereo not shown)
**Result** 2100 mg/kg

**Query** Note down LD50 at 24 h recorded for Br.CC(C)C(=O)Oc1cc(OC(=O)C(C)C)cc(C(O)CNC(C)(C)C)c1 (stereo not shown)
**Result** 2150 mg/kg

**Query** Note down LD50 at 24 h recorded for CCC(=O)Oc1cc(OC(=O)CC)cc(C(O)CNC(C)(C)C)c1 (stereo not shown)
**Result** 2200 mg/kg

---

test: Acute toxicity in mice (Example 9); conditions: mouse, in vivo; oral, mice (base)
READOUT TYPE: LD50 (mg/kg)
Express it in mg/kg; write the number only.

**Query** Note down LD50 recorded for CC(C)(C)NCC(O)c1cc(O)cc(O)c1 (racemic) [terbutaline]
**Result** 3200
